Every entry's value here was drawn from patent US7511041B2.

endpoint: melting point

Example results:
[[record]]
molecule = "COc1cc2c(cc1OC)C1=NCCN1C(/C=C(\\O)c1cccs1)=N2.Cl"
endpoint = "melting point"
readout_value = "266 to 268 °C"

[[record]]
molecule = "O=C(NC1=Nc2ccc(O)cc2C2=NCCN12)c1ccc2[nH]cnc2c1"
endpoint = "melting point"
readout_value = "296 °C (dec.)"

[[record]]
molecule = "O=C(NC1=Nc2ccccc2C2=NCCN12)c1ccsc1"
endpoint = "melting point"
readout_value = "167 °C (dec.)"

[[record]]
molecule = "O=C(Nc1nc2ccccc2c2nccn12)c1cccnc1 [Example 4-1]"
endpoint = "melting point"
readout_value = "223 to 224 °C (dec.)"


Now for the molecule whose melting point we want.
Request: Supply recorded melting point for COc1cc2c(c(OC)c1C)N=C(NC(=O)c1cccnc1)N1CCN=C21.Cl here.
Result: 235 °C (dec.)

====

Molecular target: Recombinant human PI3Kγ (full length human PI3K p110γ) (Homo sapiens)
Construct: full length human PI3K p110γ fused with a His6-tag at the C-terminus; His6 (C); purchased ALEXIS BIOCHEMICALS #201-055-C010; host or cells: S. frugiperda 9 insect cells
Sequence (P48736 whole entry, the tested form may be a part): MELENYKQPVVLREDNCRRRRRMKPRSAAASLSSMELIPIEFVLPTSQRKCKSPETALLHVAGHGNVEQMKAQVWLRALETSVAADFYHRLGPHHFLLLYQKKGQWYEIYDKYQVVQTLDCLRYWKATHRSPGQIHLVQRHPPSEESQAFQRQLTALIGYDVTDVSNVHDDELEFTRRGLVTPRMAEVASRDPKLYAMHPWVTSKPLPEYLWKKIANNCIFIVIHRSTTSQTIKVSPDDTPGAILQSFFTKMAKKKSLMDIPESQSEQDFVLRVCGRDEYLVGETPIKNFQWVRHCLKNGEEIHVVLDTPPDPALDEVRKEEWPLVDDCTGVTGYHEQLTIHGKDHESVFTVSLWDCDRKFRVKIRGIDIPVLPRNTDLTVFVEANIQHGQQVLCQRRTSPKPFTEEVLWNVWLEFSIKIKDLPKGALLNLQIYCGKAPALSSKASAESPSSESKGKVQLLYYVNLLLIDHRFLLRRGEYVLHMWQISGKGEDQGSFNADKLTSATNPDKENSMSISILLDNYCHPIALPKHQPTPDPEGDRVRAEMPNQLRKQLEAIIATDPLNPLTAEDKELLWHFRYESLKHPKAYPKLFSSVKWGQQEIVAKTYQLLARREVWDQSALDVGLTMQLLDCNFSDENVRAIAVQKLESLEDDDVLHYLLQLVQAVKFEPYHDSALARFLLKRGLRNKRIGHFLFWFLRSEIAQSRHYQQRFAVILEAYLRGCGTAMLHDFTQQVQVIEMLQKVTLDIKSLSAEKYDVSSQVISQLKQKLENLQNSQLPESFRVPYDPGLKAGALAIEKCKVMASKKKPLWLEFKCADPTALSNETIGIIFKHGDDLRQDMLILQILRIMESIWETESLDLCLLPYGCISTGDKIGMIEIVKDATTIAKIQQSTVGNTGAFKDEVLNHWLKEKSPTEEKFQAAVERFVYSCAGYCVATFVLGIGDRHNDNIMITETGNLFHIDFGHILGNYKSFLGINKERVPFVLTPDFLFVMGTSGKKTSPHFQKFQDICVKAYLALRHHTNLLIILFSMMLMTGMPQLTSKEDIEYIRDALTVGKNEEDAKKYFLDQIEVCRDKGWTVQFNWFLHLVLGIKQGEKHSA
Assay: Kinase assay of PI3Kγ (solid-phase lipid kinase assay)
Type: biochemical
Conditions: in vitro PI3K-γ inhibitory activity, class symbols A-D; read-out: in vitro PI3K-gamma
pIC50: −log10 of the molar value.
Parameter: pIC50. Scope: all listed entries.

Request: Recall the reported pIC50 of O=C(NC1=Nc2ccc([N+](=O)[O-])cc2C2=NCCN12)c1cccnc1.O=C(O)C(F)(F)F when tested on Recombinant human PI3Kγ (full length human PI3K p110γ) (Homo sapiens).
Result: 5.70 to 6.30

Request: Recall the reported pIC50 of O=C(NC1=Nc2ccc(F)cc2C2=NCCN12)c1cccnc1 when tested on Recombinant human PI3Kγ (full length human PI3K p110γ) (Homo sapiens).
Result: 5.70 to 6.30

Request: Recall the reported pIC50 of CC(C)(C)OC(=O)N1CCCCC1C(=O)NC1=Nc2ccccc2C2=NCCN12 (stereo not drawn) when tested on Recombinant human PI3Kγ (full length human PI3K p110γ) (Homo sapiens).
Result: < 5.70

Request: Recall the reported pIC50 of CC(C)n1nnc2cc(C(=O)NC3=Nc4ccccc4C4=NCCN34)ccc21 when tested on Recombinant human PI3Kγ (full length human PI3K p110γ) (Homo sapiens).
Result: < 5.70

Request: Recall the reported pIC50 of CC(C)(C)C(=O)NC1=Nc2ccccc2C2=NCCN12 when tested on Recombinant human PI3Kγ (full length human PI3K p110γ) (Homo sapiens).
Result: < 5.70

Request: Recall the reported pIC50 of O=C(NC1=Nc2ccccc2C2=NCCN12)c1ccccc1F when tested on Recombinant human PI3Kγ (full length human PI3K p110γ) (Homo sapiens).
Result: 5.70 to 6.30

Request: Recall the reported pIC50 of O=C(NC1=Nc2cc(C(F)(F)F)ccc2C2=NCCN12)c1cccs1 when tested on Recombinant human PI3Kγ (full length human PI3K p110γ) (Homo sapiens).
Result: 6.30 to 7.00

Request: Recall the reported pIC50 of Cl.NC(=O)C1CN2C(NC(=O)c3cccnc3)=Nc3ccccc3C2=N1 (stereo not drawn) when tested on Recombinant human PI3Kγ (full length human PI3K p110γ) (Homo sapiens).
Result: < 5.70

Request: Recall the reported pIC50 of COc1cc(OC)cc(C(=O)NC2=Nc3ccccc3C3=NCCN23)c1 when tested on Recombinant human PI3Kγ (full length human PI3K p110γ) (Homo sapiens).
Result: < 5.70

Request: Recall the reported pIC50 of Cl.O=C(NC1=Nc2cc(C(F)(F)F)ccc2C2=NCCN12)c1cccs1 when tested on Recombinant human PI3Kγ (full length human PI3K p110γ) (Homo sapiens).
Result: 5.70 to 6.30

Request: Recall the reported pIC50 of O=C(NC1=Nc2ccccc2C2=NCCN12)c1csc(-c2cccnc2)n1 when tested on Recombinant human PI3Kγ (full length human PI3K p110γ) (Homo sapiens).
Result: < 5.70

Request: Recall the reported pIC50 of COc1cc2c(cc1OC)C1=NCCN1C(NC(C)=O)=N2 when tested on Recombinant human PI3Kγ (full length human PI3K p110γ) (Homo sapiens).
Result: < 5.70

Request: Recall the reported pIC50 of O=C(NC1=Nc2ccc(Br)cc2C2=NCCN12)c1cccs1 when tested on Recombinant human PI3Kγ (full length human PI3K p110γ) (Homo sapiens).
Result: < 5.70

Request: Recall the reported pIC50 of CN(C=O)c1ccc(C(=O)NC2=Nc3ccccc3C3=NCCN23)cc1 when tested on Recombinant human PI3Kγ (full length human PI3K p110γ) (Homo sapiens).
Result: < 5.70

Request: Recall the reported pIC50 of Cl.O=C(NC1=Nc2ccccc2C2=NCCN12)c1cnc2ccccc2c1 when tested on Recombinant human PI3Kγ (full length human PI3K p110γ) (Homo sapiens).
Result: 6.30 to 7.00

Request: Recall the reported pIC50 of NS(=O)(=O)c1ccc(C(=O)NC2=Nc3ccccc3C3=NCCN23)cc1 when tested on Recombinant human PI3Kγ (full length human PI3K p110γ) (Homo sapiens).
Result: 5.70 to 6.30

Request: Recall the reported pIC50 of Cl.O=C(NC1=Nc2cc(OCCCN3C(=O)c4ccccc4C3=O)ccc2C2=NCCN12)c1cccnc1 when tested on Recombinant human PI3Kγ (full length human PI3K p110γ) (Homo sapiens).
Result: > 7.00

Request: Recall the reported pIC50 of Cl.O=C(NC1=Nc2ccccc2C2=NCCN12)c1cccc2cccnc12 when tested on Recombinant human PI3Kγ (full length human PI3K p110γ) (Homo sapiens).
Result: < 5.70
